Each recorded value in this set is attributed to PubChem BioAssay.

assay summary: 384-well plate pilot, post-Golgi transport modulator project, inhibition of yeast transport mutant growth (AID 636)
test settings: absorbance 615 nm, about 18 h, hits give high values
readout: inhibition (%)

- CC1CCCN(C(=O)c2cc(F)c(F)cc2Cl)C1 (configuration not stated): -4.93
- Cc1cc(C)cc(NC(=O)CCNS(=O)(=O)c2ccc3c(c2)oc(=O)n3C)c1: -6.16
- CCOC(=O)c1[nH]c(C)c(C(=O)NCC2CCCO2)c1C (configuration not stated): -2.47
- C=C(C)Cn1c(SCC)nc2ccccc2c1=O: -5.39
- COc1cccc(C2=NOC(C(=O)Nc3ccc(C(C)=O)cc3)C2)c1 (configuration not stated): -1.58
- CCCOc1cccc(-c2nnc(N)s2)c1: -4.8
- c1ccc(CCNc2ccc3nncn3n2)cc1: -2.53
- O=C(c1cc2cc(Cl)cc(Cl)c2oc1=O)N1CCOCC1: -6.35
- O=C(CCn1nc(-c2ccc(Cl)cc2)ccc1=O)N1CCN(c2ccccn2)CC1: -3.42
- CCCCOc1ccc(C(=O)Nn2cnnc2)cc1: -5
- C=CCN1C(=O)/C(=C2\SC(N3CCOCC3)=NC2=O)c2cc(Br)ccc21: -1.32
- O=c1c2[nH]c3ccccc3c2ncn1CCCn1ccnc1: -3.77

* * *

assay summary: HUVEC growth inhibition – cell-based, human, primary screen (AID 575);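 also: 100% = median of untreated cell wells with 0.1% DMSO on each plate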
test settings: HUVEC proliferation, CellTiter-Glo luminescence, 72 h; at 10 µM; hits give low values
A collection of molecules and their measured viability
readout: viability (%)

- CCOc1ccc(OCc2ccc(C(=O)Nc3cccc(C)n3)o2)cc1: 84.1
- CC1Cc2nc(SCC(=O)Nc3ccc(F)cc3F)n(C)c(=O)c2S1 (configuration not stated): 102
- CC(=O)Nc1ccc(Oc2cc(C#N)c(C#N)cc2N2CCCCCC2)cc1: 73.5
- CCOc1ccc(-c2nnn(CC(=O)N3CCN(c4ccc(F)cc4)CC3)n2)cc1OCC: 76
- CCC(=O)OCCn1c(=O)c2cc3c(=O)n(CCOC(=O)CC)c(=O)c3cc2c1=O: 98.3
- O=C1CC(C2CCCO2)C(=O)N1Cc1ccccc1 (configuration not stated): 90.2
- Cc1nnc(SCc2cn3ccsc3n2)n(N)c1=O: 95
- Cc1ccc(C2N(c3ccc(Cl)c(Cl)c3)C(=O)C3CCCN32)o1 (configuration not stated): 78.7
- COc1cc(CN2CCN(C(=O)CC(C)C)CC2)cc(OC)c1O: 103
- O=C(c1ccc(Cl)cc1)N1CCCCC(Sc2nnc(-c3ccc4c(c3)OCO4)o2)C1=O (configuration not stated): 62
- COc1ccccc1NC(=O)CSC1CC(=O)N(c2ccc3c(c2)OCO3)C1=O (configuration not stated): 96.5
- O=S(=O)(NCc1cn2ccsc2n1)c1ccc2c(c1)OCCO2: 96.4
- O=C(NCc1ccc2c(c1)OCO2)c1cc2n(n1)C(C(F)(F)F)CC(c1ccc3c(c1)OCO3)N2 (configuration not stated): 73.8
- NC1=NC(c2ccc(Br)cc2)n2c(nc3ccccc32)N1 (configuration not stated): 75.5
- CCc1nnc2n1N=C(c1ccc(-c3ccc(Cl)cc3Cl)o1)CS2: 110
- CCOc1ccc(N(CC(=O)NC2CCCC2)S(=O)(=O)c2c(C)[nH]c(=O)[nH]c2=O)cc1: 96.4
- CC1Cc2cc(/C(O)=C3/C(=O)C(=O)N(CCN4CCOCC4)C3c3cccc(O)c3)ccc2O1 (configuration not stated): 98.9
- COc1ccccc1C1c2c(oc3ccc(Cl)cc3c2=O)C(=O)N1c1cc(C)on1 (configuration not stated): 70.7
- COc1cccc(-c2noc(-c3cccs3)n2)c1: 75.1
- C=CCSc1nnc(-c2ccccc2NC(C)=O)c(=O)[nH]1: 105
- O=C(NC1CCS(=O)(=O)C1)N1CCCCC1 (configuration not stated): 103
- C=CCOc1ccc(C2C(C(=O)c3ccco3)=C(O)C(=O)N2Cc2cccnc2)cc1 (configuration not stated): 119
